Tested on: ATP;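 further: ATP exposure 15 min at 22 °C before imaging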
Assay: switch fluorescence ratio, 500 uM ATP over buffer (Cy3 cluster intensity, sum of 5 cycles each) (fold (ratio)); higher = stronger signal-on switching upon ATP binding; sequences stand for … in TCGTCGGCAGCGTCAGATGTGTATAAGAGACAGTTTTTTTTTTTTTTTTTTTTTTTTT…TC
Conditions: aptamer strand: ATP DNA aptamer (quencher-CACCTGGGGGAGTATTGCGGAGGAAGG + anchor), 100 nM annealed; ATP concentration: 500 uM
# maps each entry to its switch fluorescence ratio
Format: numeric value only, no unit, no commentary.

# count of solved cases: 10
INSERT INTO measurements (item_sequence, measured_result) VALUES
  ('TTATGTAAGG', 0.971),
  ('AATGGTAAGG', 0.963),
  ('GGTGAGGATG', 0.994),
  ('AGGCTTAGAC', 1.04),
  ('GCGGGGGTAG', 1.17),
  ('AGTCCCGTGC', 1.03),
  ('TAGTCTTTTT', 1.03),
  ('TTTCGTGCCT', 1.07),
  ('CGGGGGCTCC', 1.02),
  ('GGGTTGCGTA', 1.01);

Give recorded switch fluorescence ratio with ATP for the following sequence: "GCAGAATGGG"
1.08

How about this sequence: "GCGTGTGGGG"
1.02

Okay, and "TCGTTATGTG" ?
0.983

Param item: "AAAAAAACA"
1.2

"GAGGCATTGC" ?
1.65

* * *

Tested on: ATP;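 further: ATP exposure 15 min at 22 °C before imaging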
Assay: switch fluorescence ratio, 500 uM ATP over buffer (Cy3 cluster intensity, sum of 5 cycles each) (fold (ratio)); higher = stronger signal-on switching upon ATP binding; sequences stand for … in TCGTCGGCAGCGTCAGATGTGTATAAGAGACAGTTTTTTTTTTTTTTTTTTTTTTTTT…TC
Conditions: aptamer strand: ATP DNA aptamer (quencher-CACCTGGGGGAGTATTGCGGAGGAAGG + anchor), 100 nM annealed; ATP concentration: 500 uM
Measured switch fluorescence ratio, listed per entry.
Enter the number alone.

INSERT INTO assay_data (item_sequence, parameter_measured, measured_result) VALUES
  ('GTAATTTTGC', 'switch fluorescence ratio', 0.989),
  ('TTTGGGCGGT', 'switch fluorescence ratio', 1.04),
  ('TATTCTGCTA', 'switch fluorescence ratio', 1.02),
  ('TTTTCTCCGT', 'switch fluorescence ratio', 1.3),
  ('GGGAGGCAGG', 'switch fluorescence ratio', 1.07),
  ('TCGGAGAATG', 'switch fluorescence ratio', 1),
  ('ATGAATCGTC', 'switch fluorescence ratio', 0.993),
  ('TGCTATAAAG', 'switch fluorescence ratio', 0.988),
  ('AAAAGAGCGC', 'switch fluorescence ratio', 1.08),
  ('GGGGCTTAGT', 'switch fluorescence ratio', 1.03);

Param item = "GATCAGTGGC" ; retrieve measured switch fluorescence ratio.
1.05

Entry "ATTAAATTTT" please
1.01

// repeat for "CGATAACCTT" and report
1.48

Another sequence to check: "CGGGTGATCG"
0.96

Try this sequence next: "TACGCACGTA"
1.31

"CGGATCCCGA" ?
0.995

Moving on to "TAGGCTTAGC"
0.967

Would you kindly repeat that for "TTTTTTCCCC" ?
1.04

Where these numbers come from: the supplement of paper PMC10126150
